Entry source: PubChem BioAssay AID493087

# Target Or Test System: Insulin-degrading enzyme (Homo sapiens) (UniProt P14735)
# Sequence (P14735 whole entry, looked up): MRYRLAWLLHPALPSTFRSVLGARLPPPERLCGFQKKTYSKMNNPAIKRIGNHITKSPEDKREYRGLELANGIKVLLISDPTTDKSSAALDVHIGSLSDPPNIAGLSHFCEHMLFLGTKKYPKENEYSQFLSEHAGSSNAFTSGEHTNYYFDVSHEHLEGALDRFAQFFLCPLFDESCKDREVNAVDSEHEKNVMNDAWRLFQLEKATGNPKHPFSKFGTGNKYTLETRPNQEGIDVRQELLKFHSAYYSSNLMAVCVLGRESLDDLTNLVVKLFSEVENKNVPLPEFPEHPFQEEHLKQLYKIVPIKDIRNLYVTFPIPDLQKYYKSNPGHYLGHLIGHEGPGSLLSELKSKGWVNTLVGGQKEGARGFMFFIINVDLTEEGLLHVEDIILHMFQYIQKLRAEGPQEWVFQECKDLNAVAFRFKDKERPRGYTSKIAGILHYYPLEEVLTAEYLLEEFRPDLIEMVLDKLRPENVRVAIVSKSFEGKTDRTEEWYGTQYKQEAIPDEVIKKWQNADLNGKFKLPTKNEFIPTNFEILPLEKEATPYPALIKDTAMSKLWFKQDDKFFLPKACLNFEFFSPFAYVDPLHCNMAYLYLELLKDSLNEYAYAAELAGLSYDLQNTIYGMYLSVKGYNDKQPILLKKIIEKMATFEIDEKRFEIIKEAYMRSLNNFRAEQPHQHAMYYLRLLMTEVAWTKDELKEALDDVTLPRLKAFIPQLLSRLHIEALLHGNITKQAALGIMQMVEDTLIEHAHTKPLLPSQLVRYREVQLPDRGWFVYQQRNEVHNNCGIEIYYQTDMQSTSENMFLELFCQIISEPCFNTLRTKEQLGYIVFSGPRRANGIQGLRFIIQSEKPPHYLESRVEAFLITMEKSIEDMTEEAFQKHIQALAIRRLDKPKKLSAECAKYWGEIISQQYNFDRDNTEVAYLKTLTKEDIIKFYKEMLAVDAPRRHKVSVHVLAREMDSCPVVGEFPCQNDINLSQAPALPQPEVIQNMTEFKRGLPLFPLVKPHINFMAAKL
# Protocol: human IDE activators in live cells, primary screen, fluorescence polarization, HEK cells, FAbeta-B substrate (AID 493087)
# Condition Notes: FAbeta-B cleavage, at 5.96 µM, stronger effect = higher value, 0% vehicle, 100% cell-free pure enzyme wells
Screen size: about 340,000 compounds; about 240 (0.071%) were called active. Shown is part of a subset that was picked to be rich in actives.
Listed here: items and their measured activation.
Reported Property: activation

                                   compound  reported_property            result
0  O=C(O)CCn1cc(/C=C/C(=O)c2ccc(Cl)cc2)c(-c2cccc(Br)c2)n1         activation  7.16% (inactive)
1  COc1ccc(-c2c(-c3cc(OC)cc(OC)c3)n(C)c3ccc(-c4ccn[nH]4)cc23)cc1         activation   1.2% (inactive)
2  O=C(C1Cc2ccccc2CN1C(=O)c1ccco1)N1CCN(c2ccccc2)CC1 (centres undefined)         activation  4.46% (inactive)
3  COc1ccc(-n2ncc3c2CC(C)(C)CC3NC(=O)CCc2c(C)nn(C)c2C)cc1 (centres undefined)         activation  5.01% (inactive)
